B1: Osa-1-4 twister ribozyme (parent)
chain: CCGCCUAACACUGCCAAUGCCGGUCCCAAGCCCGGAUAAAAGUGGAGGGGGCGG

variants of: B1; assay: self-cleavage, relative activity (ratio to wild type); higher = more cleavage; co-transcriptional
The label depends only on self-cleavage: 1 if it is at least 0.08, -1 if it is smaller.

Does the variant A38U A46G have recorded self-cleavage that is 0.08 or more?
-1

Try this variant next: C26A G50U
-1

Try this variant next: A17U C15A
1

Try this variant next: C21G G48U
-1

Try this variant next: C15A G50C
1

Try this variant next: A36C C31G
-1

Try this variant next: A28C G48A
1

Try this variant next: A38U A40G
1

Try this variant next: A40G C52G
1

Try this variant next: A8C G54C
-1

Try this variant next: G44U G50U
1

Try this variant next: G23U G42C
-1

Try this variant next: C25G G34C
-1

Try this variant next: G53A U43G
1

Try this variant next: C26A G19A
-1

Try this variant next: G45A U43C
1

Try this variant next: A40U G50U
1

Try this variant next: C14G C33A
-1

Try this variant next: A39C G48A
-1

Try this variant next: C20G G19A
1

Try this variant next: A38C G13A
-1

Try this variant next: G23C U37A
-1

Try this variant next: C27A G50U
1

Try this variant next: C31U U12A
1

Try this variant next: G42U G49C
-1

Try this variant next: A16G A8C
1

Try this variant next: G35U G44U
1

Try this variant next: C20A G42A
1

Try this variant next: G22C U24G
-1

Try this variant next: C11U
1

Try this variant next: C27U G45U
-1

Try this variant next: G47U U18A
1

Try this variant next: C21A G35U
1

Try this variant next: G48U G53C
-1

Try this variant next: A28U A36C
1

Try this variant next: A16C G34C
1

Try this variant next: G47U U12C
-1

Try this variant next: A41G C21A
1

Try this variant next: G49U U12A
1

Try this variant next: A38C G50A
1

Try this variant next: C25G U18G
1

Try this variant next: A38U U18C
1

Try this variant next: G30C U12A
-1

Try this variant next: C15G U12C
1

Try this variant next: A38G C9U
1

Try this variant next: C33G G53U
-1

Try this variant next: G13C G23C
-1

Try this variant next: G35A U43A
1

Try this variant next: A16U A46C
-1

Try this variant next: A36G A38G
1

Try this variant next: C9G U18G
1

Try this variant next: A39U C27A
1

Try this variant next: G19A G45C
-1

Try this variant next: G30A G49U
-1

Try this variant next: C26U G44U
1

Try this variant next: C11G C52G
1
